# testedSystem: BChE (EC 3.1.1.8) (Equus caballus)
# Construct: BChE (EC 3.1.1.8, from equine serum); purchased Aladdin Industrial Co., Ltd. (Shanghai, China); host or cells: equine serum (natural source)
# assayName: Kinetic study of BChE inhibition (Lineweaver–Burk and secondary plots)
# Assay type: biochemical
# conditionContext: from secondary plot of 1/Vmax vs [I]; binding to ES complex
# BChE αKi per record follows
Your answer should be a plain number; it is taken to be in µM.

# smilesString, dataValue
measured = [
    ("CC(C)=CCc1cc2cc(-c3cc(O)cc(O)c3)oc2cc1O", 13.3),
]

Entry CC1(C)C=Cc2c(O)cc(-c3cc4ccc(O)cc4o3)cc2O1 ; BChE αKi = 25.2

Data point: CC(C)=CCc1c(O)cc2c(c1-c1cc3ccc(O)cc3o1)C=CC(C)(C)O2 ; BChE αKi = 22.7

Just so you know, measured BChE αKi for CC(C)=CCc1c(O)cc(-c2cc3ccc(O)cc3o2)cc1O came out at 71.1

Record CC(C)=C/C=C1\C(=O)Oc2cc(O)ccc21 , field BChE αKi: 43.0

* * *

# testedSystem: BChE (EC 3.1.1.8) (Equus caballus, UniProt P81908)
# Construct: BChE (EC 3.1.1.8, from equine serum); purchased Aladdin Industrial Co., Ltd. (Shanghai, China); host or cells: equine serum (natural source)
# Sequence (P81908 whole entry): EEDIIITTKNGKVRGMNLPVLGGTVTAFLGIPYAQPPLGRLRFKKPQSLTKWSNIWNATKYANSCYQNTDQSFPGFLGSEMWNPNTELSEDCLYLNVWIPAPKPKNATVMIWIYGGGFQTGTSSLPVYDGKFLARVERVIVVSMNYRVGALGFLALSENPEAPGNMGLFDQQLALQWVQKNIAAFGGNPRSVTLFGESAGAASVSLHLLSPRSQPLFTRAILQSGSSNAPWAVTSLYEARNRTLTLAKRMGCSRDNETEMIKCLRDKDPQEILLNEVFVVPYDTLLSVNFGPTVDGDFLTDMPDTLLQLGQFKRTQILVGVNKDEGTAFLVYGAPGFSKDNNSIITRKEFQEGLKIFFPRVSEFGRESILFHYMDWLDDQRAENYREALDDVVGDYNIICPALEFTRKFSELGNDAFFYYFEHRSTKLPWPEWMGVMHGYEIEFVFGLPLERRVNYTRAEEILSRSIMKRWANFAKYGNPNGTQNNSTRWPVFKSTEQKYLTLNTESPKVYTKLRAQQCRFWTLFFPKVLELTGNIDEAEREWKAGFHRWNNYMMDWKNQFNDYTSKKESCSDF
# assayName: BChE inhibitory activity assay (modified Ellman's method)
# Type: biochemical
# conditionContext: IC50 BChE, sample concentration that led to 50% enzyme activity loss; mean ± SD, triplicate
# Protocol: AChE (EC 3.1.1.7, from electric eel), BChE (EC 3.1.1.8, from equine serum), acetylthiocholine iodide (ATCI), butyrylthiocholine iodide (BTCI), and 5,5′-dithiobis (2-nitrobenzoic acid) (DTNB) were purchased from Aladdin Industrial Co., Ltd. (Shanghai, China). Briefly, AChE and BChE solutions (0.2 units/mL) and ATCI, BTCI, and DTNB solutions (10 mM) were prepared in PBS solution (0.1 M, pH 8.0). […] The absorbance was measured at 412 nm during incubation. […]
measurementType: pIC50
Field pIC50 (float): negative decimal logarithm of the concentration in molar.

# compound CC1(C)C=Cc2c(O)cc(-c3cc4ccc(O)cc4o3)cc2O1 ; its pIC50 = 5.02

* * *

# BChE α (thermodynamic cooperativity factor) annotations
# testedSystem: BChE (EC 3.1.1.8) (Equus caballus, UniProt P81908)
# Construct: BChE (EC 3.1.1.8, from equine serum); purchased Aladdin Industrial Co., Ltd. (Shanghai, China); host or cells: equine serum (natural source)
# assayName: Kinetic study of BChE inhibition (Lineweaver–Burk and secondary plots)
# Assay type: biochemical
# conditionContext: αKi/Ki
Returns: the value as a bare number; no unit string appended.

Some solved cases for reference:
# smilesString, dataValue
rows = [
    ("CC(C)=CCc1c(O)cc(-c2cc3ccc(O)cc3o2)cc1O", 5.55),
    ("CC(C)=CCc1cc2cc(-c3cc(O)cc(O)c3)oc2cc1O", 1.05),
    ("CC(C)=CCc1c(O)cc2c(c1-c1cc3ccc(O)cc3o1)C=CC(C)(C)O2", 13.35),
    ("CC1(C)C=Cc2c(O)cc(-c3cc4ccc(O)cc4o3)cc2O1", 4.42),
]

Now let's try a different one.
So for CC(C)=C/C=C1\C(=O)Oc2cc(O)ccc21 , the logged BChE α (thermodynamic cooperativity factor) turned out to be 0.46

Reference for the values: paper PMC10820097
